- test-details: Cmax in […] chronic ob/ob model at 50 mg/kg, po qd for 28 days measured on day 28 post last dose
- Format: ADME, organism-based
- Design: dose 50 mg/kg, route oral
- setup-conditions: in vivo
experimental-readout: Cmax (µg/mL)

compound-string	experimental-readout	reported-measurement
CN1CC[C@@H](N2C(=O)S/C(=C\c3ccc4c(cnn4Cc4ccc(Cl)cc4C(F)(F)F)c3)C2=O)[C@H](F)C1	Cmax	1.68

###

- test-details: Cmax in Zucker rat sub-chronic fa/fa prediabetic model at 10 mg/kg, po qd for 26 days measured on day 26 post last dose
- Format: ADME, organism-based
- Design: dose 10 mg/kg, route oral
- setup-conditions: in vivo
experimental-readout: Cmax

compound-string	experimental-readout	reported-measurement
CN1CC[C@@H](N2C(=O)S/C(=C\c3ccc4c(cnn4Cc4ccc(Cl)cc4C(F)(F)F)c3)C2=O)[C@H](F)C1	Cmax	2900 ng/mL

###

- test-details: Half life in CD-1 mouse at 5 mg/kg, iv by LC-MS analysis
- Type: ADME, organism-based
- setup-conditions: in vivo
experimental-readout: half-life (h)

compound-string	experimental-readout	reported-measurement
CN1CC[C@@H](N2C(=O)S/C(=C\c3ccc4c(cnn4Cc4ccc(Cl)cc4C(F)(F)F)c3)C2=O)[C@H](F)C1	half-life	11.8

###

- tested-on: Retinoic acid receptor RXR-alpha (Homo sapiens)
- Sequence (P19793 whole entry, the tested form may be a part): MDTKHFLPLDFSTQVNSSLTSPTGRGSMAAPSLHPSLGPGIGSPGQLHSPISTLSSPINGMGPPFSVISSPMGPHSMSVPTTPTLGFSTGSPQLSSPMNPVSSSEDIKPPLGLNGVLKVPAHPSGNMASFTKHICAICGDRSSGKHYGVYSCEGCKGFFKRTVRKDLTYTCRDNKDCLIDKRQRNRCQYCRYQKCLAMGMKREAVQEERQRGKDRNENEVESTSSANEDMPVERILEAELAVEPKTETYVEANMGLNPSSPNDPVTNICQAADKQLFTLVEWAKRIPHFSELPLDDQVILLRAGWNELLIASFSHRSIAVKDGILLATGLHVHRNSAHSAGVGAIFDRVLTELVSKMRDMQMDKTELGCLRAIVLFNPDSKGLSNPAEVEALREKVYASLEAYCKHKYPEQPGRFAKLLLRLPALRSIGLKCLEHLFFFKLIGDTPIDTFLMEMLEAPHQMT
- test-details: Antagonist activity at recombinant GST-tagged human RXRalpha LBD assessed as inhibition of 9-cis-retinoic acid-induced fluorescein-labeled coactivator peptide recruitment preincubated with enzyme followed by coactivator addition by LanthaScreen TR-FRET assay
pIC50: −log10 of the molar value.

compound-string	pIC50
CN1CC[C@@H](N2C(=O)S/C(=C\c3ccc4c(cnn4Cc4ccc(Cl)cc4C(F)(F)F)c3)C2=O)[C@H](F)C1	< 5.00

###

- test-details: AUC (0 to 24 hrs) in Zucker rat sub-chronic fa/fa prediabetic model at 1 mg/kg, po qd for 26 days measured on day 26 post last dose
- Assay type: ADME, organism-based
- Design: time < 24 hr, dose 1 mg/kg, route oral
- setup-conditions: in vivo

compound-string	AUC at 24 h
CN1CC[C@@H](N2C(=O)S/C(=C\c3ccc4c(cnn4Cc4ccc(Cl)cc4C(F)(F)F)c3)C2=O)[C@H](F)C1	3200 ng·h/mL

###

- Tested on: Rattus norvegicus
- test-details: Decrease in fed plasma insulin level in Zucker rat sub-chronic fa/fa prediabetic model assessed as change in plasma insulin level at 10 mg/kg, po qd for 4 days measured on day 5 relative to control
- Type: functional
- Design: scale not given: the % may be the effect or the level left
Activity vs -30%: at or above is satisfied, below is not satisfied.

compound	tested-on	cat
CN1CCC[C@H]1CN1C(=O)S/C(=C\c2ccc3c(cnn3Cc3ccc(Cl)cc3C(F)(F)F)c2)C1=O	Rattus norvegicus	not satisfied
N[C@@H](CO)CN1C(=O)S/C(=C\c2ccc3c(cnn3Cc3ccc(Cl)cc3C(F)(F)F)c2)C1=O	Rattus norvegicus	not satisfied
CC(=O)NS(=O)(=O)CN1C(=O)S/C(=C\c2ccc3c(cnn3Cc3ccc(Cl)cc3C(F)(F)F)c2)C1=O	Rattus norvegicus	not satisfied
O=C1S/C(=C\c2ccc3c(cnn3Cc3ccc(Cl)cc3C(F)(F)F)c2)C(=O)N1C1CCN(CCO)CC1	Rattus norvegicus	not satisfied
Cc1nn(Cc2ccc(Cl)cc2C(F)(F)F)c2ccc(/C=C3\SC(=O)N(CC(=O)NS(=O)(=O)N4CCCC4)C3=O)cc12	Rattus norvegicus	satisfied
CN(C)S(=O)(=O)NC(=O)CN1C(=O)S/C(=C\c2ccc3c(cnn3Cc3ccc(Cl)cc3C(F)(F)F)c2)C1=O	Rattus norvegicus	satisfied
COc1ccc(Cn2ncc3cc(/C=C4\SC(=O)N(CC(=O)O)C4=O)ccc32)c(C(F)(F)F)c1	Rattus norvegicus	satisfied
O=C(O)CN1C(=O)S/C(=C\c2ccc3c(cnn3Cc3ccc(Cl)cc3C(F)(F)F)c2)C1=O	Rattus norvegicus	not satisfied
CN1CC[C@@H](N2C(=O)S/C(=C\c3ccc4c(cnn4Cc4ccc(Cl)cc4C(F)(F)F)c3)C2=O)[C@H](F)C1	Rattus norvegicus	not satisfied
Cc1nn(Cc2ccc(Cl)cc2C(F)(F)F)c2ccc(/C=C3\SC(=O)N(CC(=O)O)C3=O)cc12	Rattus norvegicus	satisfied
O=C1S/C(=C\c2ccc3c(cnn3Cc3ccc(Cl)cc3C(F)(F)F)c2)C(=O)N1Cc1nnn[nH]1	Rattus norvegicus	not satisfied
CN1CC[C@H](N2C(=O)S/C(=C\c3ccc4c(cnn4Cc4ccc(Cl)cc4C(F)(F)F)c3)C2=O)[C@@H](F)C1	Rattus norvegicus	not satisfied
COc1ccc(Cn2ncc3cc(/C=C4\SC(=O)N(C5CCC(C(=O)O)CC5)C4=O)ccc32)c(C(F)(F)F)c1 (centres undefined)	Rattus norvegicus	satisfied
